system: MCF10A; test: one-nucleolus phenotype percent effect (relative to siNT 0% and siNOL11 100%); higher = more cells with one nucleolus (ribosome biogenesis inhibition); settings: 20 nM; 72 h
measured.quantity: one-nucleolus phenotype percent effect (%)

item_sequence="UCAAAUGCAGAUCCUGACUUC [hsa-miR-7853-5p]" endpoint_unit=% endpoint_value=-15.6
item_sequence="GAGUGGAUAGGGGAGUGUGUGGA [hsa-miR-6849-5p]" endpoint_unit=% endpoint_value=-18.4
item_sequence="AAAGAUCUGGAAGUGGGAGACA [hsa-miR-3156-5p]" endpoint_unit=% endpoint_value=-18.8
item_sequence="AUCCCACCUCUGCCACCA [hsa-miR-1260a]" endpoint_unit=% endpoint_value=-2.14
item_sequence="UUGGGAGGGAAGACAGCUGGAGA [hsa-miR-6780a-5p]" endpoint_unit=% endpoint_value=55
item_sequence="ACUGGGAAGAGGAGCUGAGGGA [hsa-miR-4646-5p]" endpoint_unit=% endpoint_value=21.9
item_sequence="AUGUAUAAAUGUAUACACAC [hsa-miR-568]" endpoint_unit=% endpoint_value=-26.3
item_sequence="AAAGUUCUGAGACACUCCGACU [hsa-miR-148a-5p]" endpoint_unit=% endpoint_value=-5.53
item_sequence="CAAAAACUGCAGUUACUUUUGC [hsa-miR-548ah-3p]" endpoint_unit=% endpoint_value=-24.8
item_sequence="UGUCACCCGCUCCUUGCCCAG [hsa-miR-6879-3p]" endpoint_unit=% endpoint_value=3.65
item_sequence="UGUGAGGUUGGCAUUGUUGUCU [hsa-miR-1294]" endpoint_unit=% endpoint_value=19
item_sequence="CUUUCAGUCAGAUGUUUGCUGC [hsa-miR-30d-3p]" endpoint_unit=% endpoint_value=-17.5
item_sequence="UGGGCUCAGGGUACAAAGGUU [hsa-miR-4437]" endpoint_unit=% endpoint_value=28.8
item_sequence="UGAGUGGGGCUCCCGGGACGGCG [hsa-miR-4745-5p]" endpoint_unit=% endpoint_value=-8.18

---

tested on: MCF10A; assay: one-nucleolus phenotype percent effect (relative to siNT 0% and siNOL11 100%); higher = more cells with one nucleolus (ribosome biogenesis inhibition); details: 20 nM; 72 h
measured.quantity: one-nucleolus phenotype percent effect (%)

item_sequence="UGGGUGGAAGAAGGUCUGGUU [hsa-miR-6745]" experimental_target=MCF10A measured_quantity="one-nucleolus phenotype percent effect" endpoint_unit=% endpoint_value=17.1
item_sequence="CUGCCAGCCCCGUUCCAGGGCA [hsa-miR-3972]" experimental_target=MCF10A measured_quantity="one-nucleolus phenotype percent effect" endpoint_unit=% endpoint_value=-2.85
item_sequence="GGGGCUGGGCGCGCGCC [hsa-miR-4492]" experimental_target=MCF10A measured_quantity="one-nucleolus phenotype percent effect" endpoint_unit=% endpoint_value=24.8
item_sequence="CUACAAAGGGAAGCCCUUUC [hsa-miR-520d-5p]" experimental_target=MCF10A measured_quantity="one-nucleolus phenotype percent effect" endpoint_unit=% endpoint_value=28.4
item_sequence="AAAAGUAAUUGUGGUUUUUGC [hsa-miR-548ay-5p]" experimental_target=MCF10A measured_quantity="one-nucleolus phenotype percent effect" endpoint_unit=% endpoint_value=-28.5
item_sequence="AAGUGCCCCCACAGUUUGAGUGC [hsa-miR-371b-3p]" experimental_target=MCF10A measured_quantity="one-nucleolus phenotype percent effect" endpoint_unit=% endpoint_value=-25.4
item_sequence="CACUGUUUCCUUUCUGAGUGGA [hsa-miR-892c-3p]" experimental_target=MCF10A measured_quantity="one-nucleolus phenotype percent effect" endpoint_unit=% endpoint_value=1.69

---

system: MCF10A; experiment: one-nucleolus phenotype percent effect (relative to siNT 0% and siNOL11 100%); higher = more cells with one nucleolus (ribosome biogenesis inhibition); settings: 20 nM; 72 h
measured.quantity: one-nucleolus phenotype percent effect (%)

item_sequence="ACUGGAUUUGGAGCCAGAA [hsa-miR-378j]" endpoint_value=-17.6
item_sequence="AACCAUCGACCGUUGAGUGGAC [hsa-miR-181c-3p]" endpoint_value=16.6
item_sequence="UCUGGCUGUUGUGGUGUGCAA [hsa-miR-3064-5p]" endpoint_value=46.2
item_sequence="ACGUUGGCUCUGGUGGUG [hsa-miR-1306-3p]" endpoint_value=38.2

---

tested on: MCF10A; assay: 5+ nucleoli phenotype percent effect (relative to siNT 0% and siKIF11 100%); higher = more cells with five or more nucleoli; settings: 20 nM; 72 h
measured.quantity: 5+ nucleoli phenotype percent effect

item_sequence="AUCAUAUGAACCAAACUCUAAU [hsa-miR-5007-3p]" measured_quantity="5+ nucleoli phenotype percent effect" endpoint_value=45.1%
item_sequence="CCUCACCAUCCCUUCUGCCUGC [hsa-miR-6511a-3p]" measured_quantity="5+ nucleoli phenotype percent effect" endpoint_value=24.1%
item_sequence="CCCAUGCCUCCUGCCGCGGUC [hsa-miR-6872-3p]" measured_quantity="5+ nucleoli phenotype percent effect" endpoint_value=-8.71%
item_sequence="GGGGUGGUCUGUUGUUG [hsa-miR-4483]" measured_quantity="5+ nucleoli phenotype percent effect" endpoint_value=44.6%
item_sequence="UAAAACUUUAAGUGUGCCUAGG [hsa-miR-5582-3p]" measured_quantity="5+ nucleoli phenotype percent effect" endpoint_value=7.07%
item_sequence="AGAGGUUGCCCUUGGUGAAUUC [hsa-miR-377-5p]" measured_quantity="5+ nucleoli phenotype percent effect" endpoint_value=-35.2%
item_sequence="UGACCUCUCCGCUCCGCACAG [hsa-miR-6821-3p]" measured_quantity="5+ nucleoli phenotype percent effect" endpoint_value=-22.7%
item_sequence="AGGAGGCAUCUUGAGAAAUGGA [hsa-miR-3612]" measured_quantity="5+ nucleoli phenotype percent effect" endpoint_value=5.34%

---

test system: MCF10A; experiment: percent viability (nuclei count relative to siNT); higher = more viable cells; settings: 20 nM; 72 h
measured.quantity: percent viability (%)

item_sequence="AACAUAGAGGAAAUUCCACGU [hsa-miR-376c-3p]" endpoint_value=99.8
item_sequence="AUUCUAAGUGCCUUGGCC [hsa-miR-4263]" endpoint_value=37.3
item_sequence="CACUCAGCCUUGAGGGCACUUUC [hsa-miR-512-5p]" endpoint_value=43.4
item_sequence="UGGAGGAGAAGGAAGGUGAUG [hsa-miR-765]" endpoint_value=21.1

---

Catalogue of percent viability readings, one per entry.
test system: MCF10A; assay: percent viability (nuclei count relative to siNT); higher = more viable cells; settings: 20 nM; 72 h
measured.quantity: percent viability (%)

item_sequence="UGACACGGAGGGUGGCUUGGGAA [hsa-miR-4462]" endpoint_unit=% endpoint_value=82.7
item_sequence="AAAGAUAGACAAUUGGCUAAAU [hsa-miR-4662a-3p]" endpoint_unit=% endpoint_value=83.7
item_sequence="AAUCAUUCACGGACAACACUU [hsa-miR-382-3p]" endpoint_unit=% endpoint_value=97.5
item_sequence="AGGCUCUAACUGGCUUUCCCUGCA [hsa-miR-6822-3p]" endpoint_unit=% endpoint_value=37.9
item_sequence="CAUGGGGUAGGGCAGAGUAGG [hsa-miR-6890-5p]" endpoint_unit=% endpoint_value=43.6
item_sequence="UCCAGCAUCAGUGAUUUUGUUG [hsa-miR-338-3p]" endpoint_unit=% endpoint_value=98.2
item_sequence="UUGAAGGGACAAGUCAGAUAUGCC [hsa-miR-6864-5p]" endpoint_unit=% endpoint_value=25.6
item_sequence="CACUGUUUCCUUUCUGAGUGGA [hsa-miR-892c-3p]" endpoint_unit=% endpoint_value=93.2
item_sequence="AUCAUACAAGGACAAUUUCUUU [hsa-miR-539-3p]" endpoint_unit=% endpoint_value=39.4

---

test system: MCF10A; assay: one-nucleolus phenotype percent effect (relative to siNT 0% and siNOL11 100%); higher = more cells with one nucleolus (ribosome biogenesis inhibition); conditions: 20 nM; 72 h
Tag: class 1 if measured one-nucleolus phenotype percent effect is not below 20%, class 0 if it is.

item_sequence="UAAUACUGUCUGGUAAAACCGU [hsa-miR-429]" qualitative_label="class 0"
item_sequence="UGCUAUGCCAACAUAUUGCCAU [hsa-miR-31-3p]" qualitative_label="class 1"
item_sequence="GCCCUCUGUCACCUUGCAGACG [hsa-miR-2276-5p]" qualitative_label="class 0"
item_sequence="ACCUCCUGUGUGCAUGGAUUA [hsa-miR-660-3p]" qualitative_label="class 0"
item_sequence="AAUGGCUGUCCGUAGUAUGGUC [hsa-miR-889-5p]" qualitative_label="class 1"
item_sequence="AAAGUGCAUCCUUUUAGAGGUU [hsa-miR-519b-3p]" qualitative_label="class 0"
item_sequence="CCAGGCUCUGCAGUGGGAACU [hsa-miR-3155a]" qualitative_label="class 0"
item_sequence="AACUAGCUCUGUGGAUCCUGAC [hsa-miR-4661-5p]" qualitative_label="class 1"
item_sequence="CAGCCAGCCCCUGCUCACCCCU [hsa-miR-6858-3p]" qualitative_label="class 0"
item_sequence="UCCCUCGCCUUCUCACCCUCAG [hsa-miR-6803-3p]" qualitative_label="class 0"
item_sequence="UGCUGGCUCAUUUCAUAUGUGU [hsa-miR-5580-5p]" qualitative_label="class 1"
